target: unlabeled human VEGF (ELISA coat) (human, UniProt P15692-4 27-191, limits assumed); experiment: ELISA overnight, EC50 WT/EC50 mutant
Sequence (P15692 other isoform, or with tags, fused parts or gaps limits assumed): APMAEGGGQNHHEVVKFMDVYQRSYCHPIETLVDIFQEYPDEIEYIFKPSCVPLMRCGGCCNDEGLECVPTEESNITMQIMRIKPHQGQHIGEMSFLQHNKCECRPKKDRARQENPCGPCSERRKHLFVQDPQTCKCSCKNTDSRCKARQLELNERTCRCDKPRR
So basically, if ELISA o/n binding comes in under 3 fold it's true (1), and if it's 3 fold or more it's false (0).

# count of solved cases: 5
S100a T (anti-VEGF IgG) (antibody, V domains shown, copies: 2 + 2) VH: EVQLVESGGGLVQPGGSLRLSCAASGYTFTNYGMNWVRQAPGKGLEWVGWINTYTGEPTYAADFKRRFTFSLDTSKSTAYLQMNSLRAEDTAVYYCAKYPHYYGTSHWYFDVWGQGTLVTVSS VL: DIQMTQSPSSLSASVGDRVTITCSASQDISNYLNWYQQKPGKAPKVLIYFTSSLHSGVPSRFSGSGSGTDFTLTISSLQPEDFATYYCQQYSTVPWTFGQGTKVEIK | true (1)
92 (antibody, human IgG1, V domains shown) VH: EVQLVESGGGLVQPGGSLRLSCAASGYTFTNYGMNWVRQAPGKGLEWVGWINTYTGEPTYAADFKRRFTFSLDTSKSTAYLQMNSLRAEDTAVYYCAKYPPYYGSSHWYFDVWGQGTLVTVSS VL: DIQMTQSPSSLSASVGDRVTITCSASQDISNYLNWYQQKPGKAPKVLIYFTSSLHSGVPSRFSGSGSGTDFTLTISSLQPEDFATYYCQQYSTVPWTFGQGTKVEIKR | true (1)
N31 L (anti-VEGF IgG) (antibody, V domains shown, copies: 2 + 2) VH: EVQLVESGGGLVQPGGSLRLSCAASGYTFTLYGMNWVRQAPGKGLEWVGWINTYTGEPTYAADFKRRFTFSLDTSKSTAYLQMNSLRAEDTAVYYCAKYPHYYGSSHWYFDVWGQGTLVTVSS VL: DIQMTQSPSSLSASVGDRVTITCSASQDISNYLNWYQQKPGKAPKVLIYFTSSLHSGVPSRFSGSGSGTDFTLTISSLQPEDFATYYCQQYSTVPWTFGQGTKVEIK | true (1)
T28 G (anti-VEGF IgG) (antibody, V domains shown, copies: 2 + 2) VH: EVQLVESGGGLVQPGGSLRLSCAASGYGFTNYGMNWVRQAPGKGLEWVGWINTYTGEPTYAADFKRRFTFSLDTSKSTAYLQMNSLRAEDTAVYYCAKYPHYYGSSHWYFDVWGQGTLVTVSS VL: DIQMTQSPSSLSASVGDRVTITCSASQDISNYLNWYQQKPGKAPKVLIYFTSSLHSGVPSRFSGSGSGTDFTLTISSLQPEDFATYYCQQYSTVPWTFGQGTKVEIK | false (0)
H97 A (anti-VEGF IgG) (antibody, V domains shown, copies: 2 + 2) VH: EVQLVESGGGLVQPGGSLRLSCAASGYTFTNYGMNWVRQAPGKGLEWVGWINTYTGEPTYAADFKRRFTFSLDTSKSTAYLQMNSLRAEDTAVYYCAKYPAYYGSSHWYFDVWGQGTLVTVSS VL: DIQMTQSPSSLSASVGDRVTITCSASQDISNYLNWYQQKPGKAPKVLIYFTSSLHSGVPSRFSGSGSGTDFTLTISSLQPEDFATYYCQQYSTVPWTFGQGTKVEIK | false (0)

Qu. Please determine if T28 Y (anti-VEGF IgG) (antibody, V domains shown, copies: 2 + 2) VH: EVQLVESGGGLVQPGGSLRLSCAASGYYFTNYGMNWVRQAPGKGLEWVGWINTYTGEPTYAADFKRRFTFSLDTSKSTAYLQMNSLRAEDTAVYYCAKYPHYYGSSHWYFDVWGQGTLVTVSS VL: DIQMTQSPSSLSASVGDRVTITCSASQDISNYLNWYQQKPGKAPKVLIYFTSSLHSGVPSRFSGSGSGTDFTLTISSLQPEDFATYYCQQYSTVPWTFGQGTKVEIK is below 3 fold in terms of ELISA o/n binding.
Ans. false (0)

Qu. Consider H97 F (anti-VEGF IgG) (antibody, V domains shown, copies: 2 + 2) VH: EVQLVESGGGLVQPGGSLRLSCAASGYTFTNYGMNWVRQAPGKGLEWVGWINTYTGEPTYAADFKRRFTFSLDTSKSTAYLQMNSLRAEDTAVYYCAKYPFYYGSSHWYFDVWGQGTLVTVSS VL: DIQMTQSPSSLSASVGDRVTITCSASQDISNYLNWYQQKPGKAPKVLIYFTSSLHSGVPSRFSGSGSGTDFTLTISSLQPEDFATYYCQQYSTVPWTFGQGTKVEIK . Does its ELISA o/n binding lie strictly below 3 fold?
Ans. true (1)

Qu. Given S100a G (anti-VEGF IgG) (antibody, V domains shown, copies: 2 + 2) VH: EVQLVESGGGLVQPGGSLRLSCAASGYTFTNYGMNWVRQAPGKGLEWVGWINTYTGEPTYAADFKRRFTFSLDTSKSTAYLQMNSLRAEDTAVYYCAKYPHYYGGSHWYFDVWGQGTLVTVSS VL: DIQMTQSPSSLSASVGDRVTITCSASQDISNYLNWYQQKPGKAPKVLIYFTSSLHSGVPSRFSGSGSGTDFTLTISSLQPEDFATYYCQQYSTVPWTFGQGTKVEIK , is recorded ELISA o/n binding strictly lower than 3 fold?
Ans. false (0)

Qu. Would you kindly verify if ELISA o/n binding of S100a Q (anti-VEGF IgG) (antibody, V domains shown, copies: 2 + 2) VH: EVQLVESGGGLVQPGGSLRLSCAASGYTFTNYGMNWVRQAPGKGLEWVGWINTYTGEPTYAADFKRRFTFSLDTSKSTAYLQMNSLRAEDTAVYYCAKYPHYYGQSHWYFDVWGQGTLVTVSS VL: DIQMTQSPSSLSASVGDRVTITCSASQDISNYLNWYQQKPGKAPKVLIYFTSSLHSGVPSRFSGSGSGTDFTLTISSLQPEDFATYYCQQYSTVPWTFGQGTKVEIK is strictly less than 3 fold?
Ans. false (0)
